Data credit: patent US20170267764A1

- system: T1, human MICA allele MICA*008 (human, UniProt Q29983 24-297)
- T1 construct: Expressed on transfected C1R cells; also called MICA*08; C1R-MICA*008
- T1 chain: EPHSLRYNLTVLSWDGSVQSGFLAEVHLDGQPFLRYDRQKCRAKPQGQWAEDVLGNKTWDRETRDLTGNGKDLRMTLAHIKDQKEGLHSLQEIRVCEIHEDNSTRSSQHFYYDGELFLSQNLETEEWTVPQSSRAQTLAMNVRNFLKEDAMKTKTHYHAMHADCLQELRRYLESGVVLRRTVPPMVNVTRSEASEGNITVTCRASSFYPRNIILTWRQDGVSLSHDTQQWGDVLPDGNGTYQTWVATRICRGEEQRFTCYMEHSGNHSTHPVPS
- assay.text: flow cytometry, C1R-MICA*008 transfectant cells
observable: EC50 (µg/mL)
Please respond with the number in µg/mL and leave the unit unwritten.

These solved cases illustrate the format of a correct answer.
>  <binder>
mAb10 (antibody, V domains shown, Produced in CHO cells as human IgG1 with huCk constant domain) VH: QVQLQESGPGLVKPSETLSLTCTVSGYSITSDYAWNWIRQPPGKGLEWMGFVSYSGTTKYNPSLKSRITISRDTSENQFSLKLSSVTAADTAVYYCARGYGFDYWGQGTTVTVSS VL: EIVLTQSPATLSLSPGERATLSCSATSSISSIYFHWYQQKPGQAPRLLIYRTSNLASGIPARFSGSGSGTDYTLTISSLEPEDFAVYYCQQGTTIPFTFGQGTKLEIK

>  <observable>
EC50

>  <value.units>
µg/mL

>  <readout.number>
0.144

$$$$
>  <binder>
mAb8 (antibody, V domains shown, Produced in CHO cells as human IgG1 with huCk constant domain) VH: QVQLQESGPGLVKPSETLSLTCTVSGYSITSDYAWNWIRQPPGKGLEWMGFVSYSGTTKYNPSLKSRVTISRDTSENQFSLKLSSVTAADTAVYYCARGYGFDYWGQGTTVTVSS VL: EIVLTQSPATLSLSPGERATLSCSATSSISSIYFHWYQQKPGQAPRLLIYRTSNLASGIPARFSGSGSGTSYTLTISSLEPEDFAVYYCQQGTTIPFTFGQGTKLEIK

>  <observable>
EC50

>  <value.units>
µg/mL

>  <readout.number>
0.0551

$$$$

Field: next binder
Data point: mAb7 (antibody, V domains shown, Produced in CHO cells as human IgG1 with huCk constant domain) VH: QVQLQESGPGLVKPSETLSLTCTVSGYSITSDYAWNWIRQPPGKGLEWMGFVSYSGTTKYNPSLKSRVTISRDTSENQFSLKLSSVTAADTAVYYCARGYGFDYWGQGTTVTVSS VL: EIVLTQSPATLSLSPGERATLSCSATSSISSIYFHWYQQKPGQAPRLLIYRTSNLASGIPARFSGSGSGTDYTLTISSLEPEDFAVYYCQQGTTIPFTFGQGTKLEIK ; EC50 = 0.0871
